test: inhibitors of TNFa-induced NFkB p65 translocation, primary screen, imaging, HUVEC, MLSMR starter and 10KST1 sets (AID 438); details: HUVEC TNFa-induced p65 nuclear translocation; measured here: nuclei count (cytotoxicity indicator), at 2.08 µM;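 note: compound added about 3h40 before a 20 min TNFalpha stimulation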
endpoint-name: cell count

Returns the measured cell count for the input compound. Input: COc1ccc(CNc2oc(-c3ccccc3)nc2C#N)cc1 458

Query: cell count; subject: CCCOc1ccc(OCCSc2ncccn2)cc1 811

* * *

assay: inhibitors of TNFa-induced NFkB p65 translocation, primary screen, imaging, HUVEC, MLSMR starter and 10KST1 sets (AID 438); conditions: HUVEC TNFa-induced p65 nuclear translocation; at 2 µM, stronger effect = higher value, 0% TNFa-plus-vehicle, 100% no-TNFa wells;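 note: compound added about 3h40 before a 20 min TNFalpha stimulation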;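 for inhibition: signal is the nuclear over cytoplasmic p65 intensity ratio per well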
endpoint-name: inhibition (%)
Dear colleague, please return just the value in %, with no unit written.

Which inhibition value is on record for COc1ccc(C(c2nnnn2C2CCCC2)N2CCN(C3CCCC3)CC2)cc1OC (centres undefined) ? 17.5

Entry CC(=O)N(C)C1(c2nnnn2CCOC(=O)Nc2ccc(Cl)cc2)CCCCC1 has what inhibition? 4.3

Requested field: inhibition. Item: CCC(=O)Nc1c(C#N)c2nc3ccccc3nc2n1-c1ccccc1C -1.9

Given the molecule Cc1cc(NC(=O)CCOc2ccccc2)no1 , what is its reported inhibition? -11.8

* * *

molecular target: Alpha-2C adrenergic receptor (Homo sapiens) (UniProt P18825); test: compounds altering alpha2C-coupled GIRK flux – cell-based, HEK293 alpha2C/GIRK1/2, thallium flux, primary screen (AID 624); conditions: thallium flux BTC fluorescence, at 10 µM, actives lie on both sides;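 note: slope of fluorescence ratio to pre-addition baseline per second over 15 to 24 s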
Sequence (P18825 whole entry, looked up): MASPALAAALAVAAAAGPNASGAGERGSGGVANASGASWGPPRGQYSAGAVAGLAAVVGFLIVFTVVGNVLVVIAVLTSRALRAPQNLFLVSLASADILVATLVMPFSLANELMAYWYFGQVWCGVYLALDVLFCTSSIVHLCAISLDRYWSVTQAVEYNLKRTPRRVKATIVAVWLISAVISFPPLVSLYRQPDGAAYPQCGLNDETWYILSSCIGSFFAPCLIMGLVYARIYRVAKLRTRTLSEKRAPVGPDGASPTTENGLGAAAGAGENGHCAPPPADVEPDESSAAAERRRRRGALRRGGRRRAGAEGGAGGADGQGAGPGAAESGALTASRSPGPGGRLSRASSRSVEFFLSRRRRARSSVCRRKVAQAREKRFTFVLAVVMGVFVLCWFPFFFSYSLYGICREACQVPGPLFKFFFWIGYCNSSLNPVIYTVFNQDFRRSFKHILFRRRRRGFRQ
Grouping rule (slope): 0 = under 0.006, 1 = from 0.006 up to 0.007, 2 = 0.007 and over

compound	label-class
OC(CN1CCN(c2ccccc2)CC1)c1ccc2c(c1)CCN2 (stereo unspecified)	1

Category of CCOC(=O)C1CCCN(C(=O)c2cn(C)c(=O)c3cc(OC)c(OC)cc23)C1 (stereo unspecified) : 2

Where would O=C1CCNc2cc3ccccc3cc21 land among the classes by reported slope? 1

Band for CC(C)CCNC(=O)NC(=O)COc1ccccc1C#N ? 1

Class? Entry: COC(=O)CSc1nc2ncc(Cl)cc2[nH]1 1

Note: place this compound into its band. Item: CCN(CC)c1ccc(NC(=O)CN2C(=O)CC(C)(C)S(=O)(=O)c3ccccc32)c(C)c1 1

* * *

Entries and their measured nuclei count follow.
assay: reduction of polyQ htt aggregates in cells – imaging, exon1htt(103Q)mCFP cells, high-content imaging, primary screen (AID 483); details: exon1htt(103Q)mCFP cell line, aggregate imaging, at 2 µM; measured here: cell count, toxicity;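 note: compound exposure lasted 3 days before fixation; percent of the per-plate median nuclei count of sample wells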
Respond numerically; units are % and should not be typed.

Please review the following examples before continuing.
molecule	display-unit	nuclei count
CC(C)OC(=O)c1ccc(OC(=O)c2cccnc2)cc1	%	107
CCCC(=O)Nc1cc(C)c2c(=O)oc3ccccc3c2n1	%	97.4
Cc1cccc(Cc2c(C)nc3nc(SCC(=O)NCc4ccco4)nn3c2C)c1	%	85.7
Cc1c2cnn(CC(=O)N3CCN(c4ncccn4)CC3)c(=O)c2c(C)n1Cc1ccc(F)cc1	%	99.5
COCCn1nnnc1C(c1cc2cc(OC)ccc2[nH]c1=O)N1CCC(Cc2ccccc2)CC1 (configuration not stated)	%	88.5
CC1CCCCC1NC(=O)c1ccc(N2CCCC2=O)cc1 (configuration not stated)	%	142

Returns the measured nuclei count for the input molecule. Input: CC1CCCN(C(=O)c2cc3c(-c4ccc(Cl)cc4)nn(C)c3s2)C1 (configuration not stated) 104

Sample CC12COC3(C(=O)Nc4ccc(Cl)cn4)CC1CCC32C (configuration not stated) — what was its nuclei count? 85.1

What does the record list as nuclei count for CC1CCCCN1C(=O)Cn1nnc(-c2cccnc2)n1 (configuration not stated) ? 93.1

I'd like to know its nuclei count. The molecule in question is CCOC(=O)C1CCCN(CCCc2ccccc2)C1 (configuration not stated) 118

Which nuclei count value belongs to COC(=O)CN(c1ccc(OC)cc1)S(=O)(=O)c1ccc(OC)c(OC)c1 ? 106

# input molecule: CN(C)c1ccc(/C(=N\O)c2ccccc2)cc1 ; wanted: its nuclei count 93.6
